System: Escherichia coli
Method notes: Antimicrobial activity against Escherichia coli
Format: functional
Measured quantity: MIC

Record excerpt, results attached:
- Molecule: "CC(C)C[C@@H]1NC(=O)[C@@H](Cc2ccccc2)NC(=O)[C@H](CCN)NC(=O)[C@@H](NC(=O)[C@H](CCN)NC(=O)[C@@H](NC(=O)[C@H](CCN)NC(=O)CC23CC4CC(CC(C4)C2)C3)[C@@H](C)O)CCNC(=O)[C@H]([C@@H](C)O)NC(=O)[C@H](CCN)NC(=O)[C@H](CCN)NC1=O [1-ADAMANTANEACETIC ACID POLYMIXIN B]"
  MIC: "1 µM"
- Molecule: "CC(=O)N[C@H](C(=O)N[C@@H](CCN)C(=O)N[C@H]1CCNC(=O)[C@H]([C@@H](C)O)NC(=O)[C@H](CCN)NC(=O)[C@H](CCN)NC(=O)[C@H](CC(C)C)NC(=O)[C@@H](Cc2ccccc2)NC(=O)[C@H](CCN)NC1=O)[C@@H](C)O"
  MIC: "32 µM"

Can you look up the measured MIC of CCC(C)CCCCC(=O)N[C@@H](CCNCc1ccc(O)c(OC)c1)C(=O)N[C@@H](C(=O)N[C@@H](CCN)C(=O)N[C@H]1CCNC(=O)[C@@H]([C@@H](C)O)NC(=O)[C@H](CCNCc2ccc(O)c(O)c2)NC(=O)[C@H](CCNCc2ccc(O)c(OC)c2)NC(=O)[C@H](CC(C)C)NC(=O)[C@@H](Cc2ccccc2)NC(=O)[C@H](CCNCc2ccc(O)c(OC)c2)NC1=O)[C@@H](C)O (stereo partly drawn) for me?
724 µg/mL

---

Tested on: Lipopolysaccharide (LPS)
Method notes: Displacement of dansyl-PMB from LPS by isothermal titration calorimetry
*1 amine or outer side, *2 acyl side, *3 side chain or, on linkers, in order; H or OH if unused. Where a SMILES comes first, the peptide text is derived from it. Bridges are numbered along the chain shown (N, C = ends). X1 = NC(=O)[C@@H](CS[*:2])C(=O)[*:1]
Measured quantity: Ka

Can you look up the measured Ka of CC(C)C[C@@H]1NC(=O)[C@H](Cc2ccccc2)NC(=O)[C@H](CCCCN)NC(=O)[C@@H](C(N)=O)CSSC[C@@H](C(N)=O)NC(=O)[C@H](CCCCN)NC(=O)[C@H](CCCCN)NC1=O (KFLKKC-NH2; linker N-6 via X1) for me?
1.15 10^5/M

---

Method notes: Toxicity in iv dosed CF1 mouse
Assay type: organism-based
Setup conditions: CF1, mouse, in vivo
Where a SMILES comes first, the peptide text is derived from it. Bridges are numbered along the chain shown (N, C = ends). [ ]: non-standard residue; d: D form. The star is where a group is joined. Octanoyl = CCCCCCCC(=O)*; Dab = NCC[C@H](N)C(=O)O
Measured quantity: LD50 (mg/kg)
Kindly answer with a numeric value in mg/kg, unit omitted.

Can you look up the measured LD50 of CCCCCCCC(=O)N[C@@H](CCN)C(=O)N[C@H](C(=O)N[C@@H](CCN)C(=O)N[C@H]1CCNC(=O)[C@H]([C@@H](C)O)NC(=O)[C@H](CCNC(=O)[C@@H](N)CCCNC(=N)N)NC(=O)[C@H](CCN)NC(=O)[C@H](CC(C)C)NC(=O)[C@@H](Cc2ccccc2)NC(=O)[C@H](CCN)NC1=O)[C@@H](C)O (Octanoyl-[Dab]T[Dab][Dab][Dab][dF]L[Dab][Dab](Arg)T; lactam 4-C) for me?
15

---

Tested on: Escherichia coli
Method notes: Antimicrobial activity against Escherichia coli
Format: functional
Where a SMILES comes first, the peptide text is derived from it. Bridges are numbered along the chain shown (N, C = ends). [ ]: non-standard residue; d: D form. The star is where a group is joined. Nonanoyl = CCCCCCCCC(=O)*; Dab = NCC[C@H](N)C(=O)O
Measured quantity: MIC (µM)
Kindly answer with a numeric value in µM, unit omitted.

- Molecule: "CCCCCCCC(=O)N[C@H](C(=O)N[C@@H](CCN)C(=O)N[C@H]1CCNC(=O)[C@H]([C@@H](C)O)NC(=O)[C@H](CCN)NC(=O)[C@H](CCN)NC(=O)[C@H](CC(C)C)NC(=O)[C@@H](Cc2ccccc2)NC(=O)[C@H](CCN)NC1=O)[C@@H](C)O (stereo in doubt; 231) [Octanoyl Polymixin B nonapeptide]"
  MIC [µM]: 2

Can you look up the measured MIC of CCCCCCCCC(=O)N[C@@H](CCN)C(=O)N[C@H](C(=O)N[C@@H](CCN)C(=O)N[C@H]1CCNC(=O)[C@H]([C@@H](C)O)NC(=O)[C@H](CCN)NC(=O)[C@H](CCN)NC(=O)[C@H](CC(C)C)NC(=O)[C@@H](Cc2ccccc2)NC(=O)[C@H](CCN)NC1=O)[C@@H](C)O [POLYMYXIN B5] (Nonanoyl-[Dab]T[Dab][Dab][Dab][dF]L[Dab][Dab]T; lactam 4-C) for me?
1

CC(C)C[C@@H]1NC(=O)[C@@H](Cc2ccccc2)NC(=O)[C@H](CCN)NC(=O)[C@@H](NC(=O)[C@H](CCN)NC(=O)[C@@H](NC(=O)[C@H](C)NC(=O)O)[C@@H](C)O)CCNC(=O)[C@H]([C@@H](C)O)NC(=O)[C@H](CCN)NC(=O)[C@H](CCN)NC1=O [DESFA-[ALA1]POLYMYXIN B] , same question.
32

---

Parameter: MIC. Scope: all listed entries.
Tested on: Escherichia coli
Method notes: Antimicrobial activity against Escherichia coli
Assay type: functional
Kindly answer with a numeric value in µg/mL, unit omitted.

- Molecule: "CCCCCCCC(=O)N[C@@H](CCN)C(=O)N[C@H](C(=O)N[C@@H](CCN)C(=O)N[C@H]1CCNC(=O)[C@H]([C@@H](C)O)NC(=O)[C@H](CCNC(=O)[C@@H](N)Cc2ccc(O)cc2)NC(=O)[C@H](CCN)NC(=O)[C@H](CC(C)C)NC(=O)[C@@H](Cc2ccccc2)NC(=O)[C@H](CCN)NC1=O)[C@@H](C)O"
  Test system: "Escherichia coli"
  MIC [µg/mL]: 0.175

Can you look up the measured MIC of CCC(C)CCCCC(=O)N[C@@H](CC/N=C/c1ccccc1)C(=O)N[C@H](C(=O)N[C@@H](CCN)C(=O)N[C@H]1CCNC(=O)[C@H]([C@@H](C)O)NC(=O)[C@H](CC/N=C/c2ccccc2)NC(=O)[C@H](CC/N=C/c2ccccc2)NC(=O)[C@H](CC(C)C)NC(=O)[C@@H](CC(C)C)NC(=O)[C@H](CC/N=C/c2ccccc2)NC1=O)[C@@H](C)O (stereo partly drawn) for me?
0.08

---

Test system: Escherichia coli
Method notes: Antimicrobial activity against Escherichia coli
Format: functional
Measured quantity: MIC

- Molecule: "CCCCCCCC(=O)N[C@@H](CCN)C(=O)N[C@H](C(=O)N[C@@H](CCN)C(=O)N[C@H]1CCNC(=O)[C@H]([C@@H](C)O)NC(=O)[C@H](CCNC(=O)CO)NC(=O)[C@H](CCN)NC(=O)[C@H](CC(C)C)NC(=O)[C@@H](Cc2ccccc2)NC(=O)[C@H](CCN)NC1=O)[C@@H](C)O [HYDROXYACETYL DAB9 POLYMYXIN B]"
  Test system: "Escherichia coli"
  Recorded result: "1.54 µg/mL"

Give Escherichia coli MIC for CC(C)C[C@@H]1NC(=O)[C@@H](Cc2ccccc2)NC(=O)[C@H](CCN)NC(=O)[C@@H](NC(=O)[C@H](CCN)NC(=O)[C@H](NC(=O)[C@H](C)NC(=O)[C@@H](C)NC(=O)[C@H](C)NC(=O)[C@H](C)NC(=O)[C@@H](C)NC(=O)[C@H](C)N)[C@@H](C)O)CCNC(=O)[C@@H]([C@@H](C)O)NC(=O)[C@H](CCN)NC(=O)[C@H](CCN)NC1=O
≥ 500 µg/mL

CC(C)C[C@@H]1NC(=O)[C@@H](Cc2ccccc2)NC(=O)[C@H](CCN)NC(=O)[C@@H](NC(=O)[C@H](CCN)NC(=O)[C@@H](NC(=O)[C@H](CCN)NC(=O)Cc2ccc(-c3ccccc3)cc2)[C@@H](C)O)CCNC(=O)[C@H]([C@@H](C)O)NC(=O)[C@H](CCN)NC(=O)[C@H](CCN)NC1=O [4-BIPHENYL ACETIC ACID POLYMIXIN B] , same question.
0.5 µM

---

Tested on: Escherichia coli
Method notes: Antimicrobial activity against Escherichia coli
Type: functional
Measured quantity: MIC (µg/mL)
Kindly answer with a numeric value in µg/mL, unit omitted.

- Compound: "CCC(C)CCCCC(=O)N[C@@H](CCNCc1ccc(O)cc1)C(=O)N[C@H](C(=O)N[C@@H](CCN)C(=O)N[C@H]1CCNC(=O)[C@H]([C@@H](C)O)NC(=O)[C@H](CCNCc2ccc(O)cc2)NC(=O)[C@H](CCNCc2ccc(O)cc2)NC(=O)[C@H](CC(C)C)NC(=O)[C@@H](Cc2ccccc2)NC(=O)[C@H](CCNCc2ccc(O)cc2)NC1=O)[C@@H](C)O (stereo partly drawn)"
  Recorded result: 6.2

Turning to the following compound.
Can you look up the measured MIC of CCCCCCCC(=O)N[C@H](C(=O)N[C@@H](CCN)C(=O)N[C@H]1CCNC(=O)[C@H]([C@@H](C)O)NC(=O)[C@H](CCN)NC(=O)[C@H](CCN)NC(=O)[C@H](CC(C)C)NC(=O)[C@@H](Cc2ccccc2)NC(=O)[C@H](CCN)NC1=O)[C@@H](C)O (stereo in doubt; 80) [Octanoyl Polymixin B nonapeptide] for me?
0.03
